Assay: Gravimetric solubility
Type: physicochemical
Details: organic solvent or mixture, thermodynamic from solid; solvent Acetone/MeOH (1:3); 50° C.; read-out: Gravimetric Solubility at 50° C.
reportedEndpoint: solubility

Inquiry: Name the recorded solubility for CCCCCc1cc(OC(=O)c2ccc3ccccc3c2)c2c(c1)OC(C)(C)[C@@H]1CCC(C)=C[C@@H]21 [Form B] .
Reply text: ~41 mg/mL

###

Assay: D9 solubility in the liquors at isolation temperature
Format: physicochemical
Settings: crystallisation liquors over suspended solid, 25 °C, organic solvent or mixture, thermodynamic from solid, batch 5; Toluene/MeOH (3:7); seed G; heat T 25; isolation T 25; 10.0 mL/g; SP 7
reportedEndpoint: solubility
Note to self: number, then unit, no commentary.

Inquiry: Name the recorded solubility for CCCCCc1cc(OC(=O)c2ccc3ccccc3c2)c2c(c1)OC(C)(C)[C@@H]1CCC(C)=C[C@@H]21 [Form H] .
Reply text: 64.7 mg/mL

###

Experiment: Gravimetric solubility
Assay type: physicochemical
Details: 20 °C, organic solvent or mixture, thermodynamic from solid; solvent IPA; RT; read-out: Gravimetric Solubility at RT
reportedEndpoint: solubility

Inquiry: Name the recorded solubility for CCCCCc1cc(OC(=O)c2ccc3ccccc3c2)c2c(c1)OC(C)(C)[C@@H]1CCC(C)=C[C@@H]21 [Form B] .
Reply text: ~7000 µg/mL

###

Experiment: D9 solubility in the liquors at isolation temperature
Format: physicochemical
Details: IPA, 25 °C, organic solvent or mixture, thermodynamic from solid, batch 5, IPA, seed G/H, heat T 50, isolation T 25, SP 14, 10.0 mL/g
reportedEndpoint: solubility (µg/mL)
Output spec: scalar in µg/mL, unitless text.

Inquiry: Name the recorded solubility for CCCCCc1cc(OC(=O)c2ccc3ccccc3c2)c2c(c1)OC(C)(C)[C@@H]1CCC(C)=C[C@@H]21 [Form B] .
Reply text: 7300

###

Assay: Visual solubility of Form B
Type: physicochemical
Details: organic solvent or mixture, thermodynamic from solid; solvent DMSO; RT; read-out: Visual Solubility at RT
Method: Solubility of D9-THC-naphthoylester, Form B (Batch 2) was determined by visual assessment in various solvents at RT and 50° C. Aliquots of solvent were added to 20 mg of solids at room temperature and 25 mg of solids at 50° C. until complete dissolution or until a maximum volume of 1 mL was added.
reportedEndpoint: solubility

Inquiry: Name the recorded solubility for CCCCCc1cc(OC(=O)c2ccc3ccccc3c2)c2c(c1)OC(C)(C)[C@@H]1CCC(C)=C[C@@H]21 [Form B] .
Reply text: 18 to 46 mg/mL

###

Assay: D9 solubility in the liquors at isolation temperature
Format: physicochemical
Settings: liquors of the equilibrated crystallisation suspension, 25 °C, organic solvent or mixture, thermodynamic from solid, Toluene/EtOH (1:9); isolation 25 °C; SP 19; 10.0 mL/g; read-out: D9 Solubility at Isolation T
reportedEndpoint: solubility (mg/mL)
Output spec: scalar in mg/mL, unitless text.

Inquiry: Name the recorded solubility for CCCCCc1cc(OC(=O)c2ccc3ccccc3c2)c2c(c1)OC(C)(C)[C@@H]1CCC(C)=C[C@@H]21 [Form H] .
Reply text: 19.6

###

Experiment: D9 solubility in the liquors at isolation temperature
Type: physicochemical
Conditions: crystallisation liquors over suspended solid, 25 °C, organic solvent or mixture, thermodynamic from solid, batch 5; Toluene/MeOH (1:9); seed E/G; heat T 50; isolation T 25; 9.6 mL/g; SP 3
reportedEndpoint: solubility (µg/mL)
Output spec: scalar in µg/mL, unitless text.

Inquiry: Name the recorded solubility for CCCCCc1cc(OC(=O)c2ccc3ccccc3c2)c2c(c1)OC(C)(C)[C@@H]1CCC(C)=C[C@@H]21 [Form G] .
Reply text: 6500

###

Assay: Visual solubility of Form B
Type: physicochemical
Details: organic solvent or mixture, thermodynamic from solid; solvent MeCN; RT; read-out: Visual Solubility at RT
reportedEndpoint: solubility

Inquiry: Name the recorded solubility for CCCCCc1cc(OC(=O)c2ccc3ccccc3c2)c2c(c1)OC(C)(C)[C@@H]1CCC(C)=C[C@@H]21 [Form B] .
Reply text: 9 to 18 mg/mL

###

Assay: D9 solubility in the liquors at isolation temperature
Format: physicochemical
Details: DMSO/acetone/MeOH (1.5:1.5:7), 25 °C, organic solvent or mixture, thermodynamic from solid, batch 5, DMSO/acetone/MeOH (1.5:1.5:7), seed G, heat T 50, isolation T 25, SP 4, 5.1 mL/g
reportedEndpoint: solubility
Note to self: number, then unit, no commentary.

Inquiry: Name the recorded solubility for CCCCCc1cc(OC(=O)c2ccc3ccccc3c2)c2c(c1)OC(C)(C)[C@@H]1CCC(C)=C[C@@H]21 [Form B] .
Reply text: 7200 µg/mL

###

Assay: Gravimetric solubility
Format: physicochemical
Settings: 20 °C, organic solvent or mixture, thermodynamic from solid; solvent Heptane; RT; read-out: Gravimetric Solubility at RT
reportedEndpoint: solubility

Inquiry: Name the recorded solubility for CCCCCc1cc(OC(=O)c2ccc3ccccc3c2)c2c(c1)OC(C)(C)[C@@H]1CCC(C)=C[C@@H]21 [Form B] .
Reply text: ~33 mg/mL

###

Experiment: Visual solubility of Form B
Format: physicochemical
Conditions: organic solvent or mixture, thermodynamic from solid; solvent Cyclohexane; RT; read-out: Visual Solubility at RT
reportedEndpoint: solubility

Inquiry: Name the recorded solubility for CCCCCc1cc(OC(=O)c2ccc3ccccc3c2)c2c(c1)OC(C)(C)[C@@H]1CCC(C)=C[C@@H]21 [Form B] .
Reply text: 92 to 368 mg/mL

###

Assay: D9 solubility in the liquors at isolation temperature
Assay type: physicochemical
Settings: liquors of the equilibrated crystallisation suspension, 25 °C, organic solvent or mixture, thermodynamic from solid, batch 2; IPA/water (99:1); seed G/H; heat T 55; isolation T 25; 10.0 mL/g; SP 13; Exp 45
reportedEndpoint: solubility (µg/mL)
Output spec: scalar in µg/mL, unitless text.

Inquiry: Name the recorded solubility for CCCCCc1cc(OC(=O)c2ccc3ccccc3c2)c2c(c1)OC(C)(C)[C@@H]1CCC(C)=C[C@@H]21 [Form B] .
Reply text: 7300

###

Assay: Gravimetric solubility
Format: physicochemical
Conditions: 20 °C, organic solvent or mixture, thermodynamic from solid; solvent MeCN; RT; read-out: Gravimetric Solubility at RT
reportedEndpoint: solubility

Inquiry: Name the recorded solubility for CCCCCc1cc(OC(=O)c2ccc3ccccc3c2)c2c(c1)OC(C)(C)[C@@H]1CCC(C)=C[C@@H]21 [Form B] .
Reply text: ~14 mg/mL

###

Assay: Visual solubility of Form B
Assay type: physicochemical
Conditions: organic solvent or mixture, thermodynamic from solid; solvent MeOH; 50° C.; read-out: Visual Solubility at 50° C.
reportedEndpoint: solubility

Inquiry: Name the recorded solubility for CCCCCc1cc(OC(=O)c2ccc3ccccc3c2)c2c(c1)OC(C)(C)[C@@H]1CCC(C)=C[C@@H]21 [Form B] .
Reply text: < 25 mg/mL

###

Assay: D9 solubility in the liquors at isolation temperature
Format: physicochemical
Settings: crystallisation liquors over suspended solid, 25 °C, organic solvent or mixture, thermodynamic from solid, batch 5; Cyclohexanone/MeOH (1:3); seed G; heat T 40; isolation T 25; 9.4 mL/g; SP 3
reportedEndpoint: solubility (mg/mL)
Output spec: scalar in mg/mL, unitless text.

Inquiry: Name the recorded solubility for CCCCCc1cc(OC(=O)c2ccc3ccccc3c2)c2c(c1)OC(C)(C)[C@@H]1CCC(C)=C[C@@H]21 [Form G] .
Reply text: 34.4

###

Experiment: D9 solubility in the liquors at isolation temperature
Format: physicochemical
Settings: liquors of the equilibrated crystallisation suspension, 25 °C, organic solvent or mixture, thermodynamic from solid, batch 5; EtOAc/MeOH (1:3); seed H; heat T 55; isolation T 25; 10.0 mL/g; SP 21; Exp 34
reportedEndpoint: solubility (µg/mL)
Output spec: scalar in µg/mL, unitless text.

Inquiry: Name the recorded solubility for CCCCCc1cc(OC(=O)c2ccc3ccccc3c2)c2c(c1)OC(C)(C)[C@@H]1CCC(C)=C[C@@H]21 [Form H] .
Reply text: 8900

###

Experiment: D9 solubility in the liquors at isolation temperature
Format: physicochemical
Conditions: crystallisation liquors over suspended solid, 25 °C, organic solvent or mixture, thermodynamic from solid, batch 5; Toluene/EtOH (2:8); seed H; heat T 25; isolation T 25; 5.0 mL/g; SP 18; Exp 52
reportedEndpoint: solubility (mg/mL)
Output spec: scalar in mg/mL, unitless text.

Inquiry: Name the recorded solubility for CCCCCc1cc(OC(=O)c2ccc3ccccc3c2)c2c(c1)OC(C)(C)[C@@H]1CCC(C)=C[C@@H]21 [Form H] .
Reply text: 36.2

###

Experiment: Visual solubility of Form B
Format: physicochemical
Settings: common organic solvents, organic solvent or mixture, thermodynamic from solid; read-out: Solubility
reportedEndpoint: solubility

Inquiry: Name the recorded solubility for CCCCCc1cc(OC(=O)c2ccc3ccccc3c2)c2c(c1)OC(C)(C)[C@@H]1CCC(C)=C[C@@H]21 [Form B] .
Reply text: > 100 mg/mL

###

Assay: D9 solubility in the liquors at isolation temperature
Format: physicochemical
Settings: MEK/MeOH (1:9), 25 °C, organic solvent or mixture, thermodynamic from solid, batch 5, MEK/MeOH (1:9), seed G/H, heat T 60, isolation T 25, SP 12, 10.0 mL/g
Experimental: At the end of each experiment, suspensions were equilibrated at the isolation temperature (25 or 5° C.) for at least 18 hours and the solids and liquors separated by centrifugation at the isolation temperature. The Exo/D9/D8 ratio (Exo-D9-THC-naphthoylester impurity/D9-THC-naphthoylester/D8-THC-naphthoylester) was determined in both the isolated solids and the liquors, from which the % Exo-depletion in the isolated solids was calculated. […]
reportedEndpoint: solubility

Inquiry: Name the recorded solubility for CCCCCc1cc(OC(=O)c2ccc3ccccc3c2)c2c(c1)OC(C)(C)[C@@H]1CCC(C)=C[C@@H]21 [Form B] .
Reply text: 4500 µg/mL
